Recorded Ki for molecules tested on Adenosine receptor A2a (Homo sapiens, UniProt P29274), drawn from a number of studies.
Sequence (P29274 whole entry): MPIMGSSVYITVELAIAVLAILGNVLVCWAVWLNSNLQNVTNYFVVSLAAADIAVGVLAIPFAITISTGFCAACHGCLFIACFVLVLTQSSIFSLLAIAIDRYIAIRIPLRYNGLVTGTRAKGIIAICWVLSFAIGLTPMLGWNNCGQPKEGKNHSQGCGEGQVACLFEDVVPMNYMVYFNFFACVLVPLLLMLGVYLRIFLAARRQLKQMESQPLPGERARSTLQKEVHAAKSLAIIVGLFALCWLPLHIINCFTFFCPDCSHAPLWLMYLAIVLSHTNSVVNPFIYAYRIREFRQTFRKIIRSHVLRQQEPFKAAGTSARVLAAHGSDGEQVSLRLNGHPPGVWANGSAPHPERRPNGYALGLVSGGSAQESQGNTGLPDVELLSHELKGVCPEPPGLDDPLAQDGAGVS
Give just the number in nM; leave the unit off.

Below, 3 molecules whose answers are already recorded.
Nc1nc(-c2ccco2)c2cnn(Cc3ccccc3F)c2n1 ... 4
CCCn1c(=O)c2nc(-c3cc(OCC(=O)c4ccc(C(C)=O)cc4)nn3C)[nH]c2n(CCC)c1=O ... 87.1
O=C1c2ccccc2C(=O)c2cc(OCC(O)CN3CCCCC3)ccc21 (centres undefined) ... 5010

### Prompt What value of Ki on Adenosine receptor A2a (Homo sapiens, UniProt P29274) does CCn1c(=O)c2[nH]c(Cc3cccs3)nc2n(Cc2ccco2)c1=O have?
### Response 363
